I'd be grateful if you could share measured melting point for these entries.

# input GET /values?readout=melting point&item= CC1(C)CN=C(c2cnc3ccccc3c2)c2cccc(F)c2S1
# output 119 to 122 °C

# input Which melting point value belongs to CC1(C)N=C(c2cnc3ccccc3c2)c2cccc(F)c2OC1(C)C ?
# output 132 to 133 °C

# input melting point for CC1(Cl)CN=C(c2cnc3ccccc3c2)c2cccc(F)c2O1 (stereo not shown) ?
# output 123 to 125 °C

# input Entry CC1(C)CN=C(c2cnc3c(F)cccc3c2)c2cccc(F)c2O1.O=C(O)C(F)(F)F has what melting point?
# output 174 to 176 °C

# input Name the reported melting point value associated with the molecule Cc1cccc2cc(C3=NCC(C)(C)Oc4c(Cl)cccc43)cnc12
# output 145 to 147 °C

# input molecule: CC1(C)N=C(c2cnc3c(F)cccc3c2)c2cccc(F)c2OC1(C)C ; wanted: its melting point
# output 144 to 145 °C

# input Given the entry CC1N=C(c2cnc3ccccc3c2)c2ccccc2OC1(C)C (stereo not shown) , report its measured melting point.
# output 139 to 142 °C

# input Which melting point value belongs to CC1(C)CNC(c2cnc3c(F)cccc3c2)c2cccc(Cl)c2O1 (stereo not shown) ?
# output 133 to 134 °C

# input I'd like to know its melting point. The molecule in question is CC1(C)CN=C(c2cnc3c(F)cccc3c2)c2cccc(F)c2O1
# output 171 to 173 °C

# input Given CC1(C)CN=C(c2cnc3ccccc3c2)c2ccccc2[S+]1[O-] (stereo not shown) , state its recorded melting point.
# output 118 to 120 °C

----------
Assignment: determine reported melting point for the given compounds.

# input Looking for the measured melting point of CC1(C)COc2cc(F)ccc2C(c2cnc3ccccc3c2)=N1 , can you help?
# output 133 to 135 °C

# input # lookup: melting point of CCC1(C)CN=C(c2cnc3c(F)cccc3c2)c2cccc(Cl)c2O1 (stereo not drawn)
# output 144 to 146 °C

# input What value of measured melting point is listed for CC(=O)N1CC(C)(C)Oc2c(F)cccc2C1c1cnc2c(F)cccc2c1 (stereo not drawn) ?
# output 132 to 134 °C

# input Item under review: CC1(C)CN=C(c2cnc3ccccc3c2)c2cccc(Cl)c2O1.O=C(O)C(F)(F)F . Reported melting point?
# output 129 to 131 °C

# input Record request: melting point value, item CC1(C)CN=C(c2cnc3c(F)cccc3c2)c2cccc(F)c2O1.Cl
# output 164 to 166 °C

# input Name the recorded melting point for CC1(C)CN=C(c2cnc3c(Cl)cccc3c2)c2ccccc2O1 .
# output 155 to 157 °C

# input Return reported melting point; argument: CC1(C)Oc2ccccc2C(c2cnc3ccccc3c2)NC1=O (stereo not drawn)
# output 225 to 227 °C

# input So what's the measured melting point for this one? O=C1COc2ccccc2C(c2cnc3ccccc3c2)=N1
# output 169 to 170 °C

# input Consider the compound Cc1ccc2ncc(C3=NCC(C)(C)Oc4c(Cl)cccc43)cc2c1 and give its measured melting point.
# output 166 to 168 °C

# input Form field: reported melting point of Cc1cc(C2=NCCOc3c(Cl)cccc32)cnc1C
# output 142 to 143 °C

# input Report melting point for CC1(c2ccccc2)CN=C(c2cnc3ccccc3c2)c2ccccc2O1 (stereo not drawn) please.
# output 196 to 197 °C

# input So what does the record say about melting point for CC1(C)CN=C(c2cnc3c(F)cccc3c2)c2cccc(Cl)c2O1 ?
# output 190 to 191 °C

# input // lookup melting point for Fc1cccc2c1C(c1cnc3ccccc3c1)=NCCO2
# output 126 to 128 °C

# input If you can, please state the reported melting point value of CC1(C)CN=C(c2cnc3c(F)cccc3c2)c2cccc(F)c2S1 .
# output 179 to 181 °C

# input Please report the recorded melting point for CC1(C)CN=C(c2cnc3c(F)cccc3c2)c2ccccc2O1 .
# output 165 to 167 °C

# input Bench note: what melting point did c1ccc2c(c1)OCCN=C2c1cnc2ccccc2c1 show?
# output 115 to 117 °C

# input // melting point lookup, key: COc1cccc2c1OC(C)(C)CN=C2c1cnc2ccccc2c1
# output 153 to 155 °C

# input May I ask what melting point has been recorded for CCN1CC(C)(C)Oc2c(F)cccc2C1c1cnc2c(F)cccc2c1 (stereo not drawn) ?
# output 117 to 118 °C

# input Could you share which melting point value was measured for CCC1(C)CN=C(c2cnc3c(F)cccc3c2)c2cccc(F)c2O1 (stereo not drawn) ?
# output 140 to 142 °C

# input Given the entry CC1(C(F)(F)F)CN=C(c2cnc3c(F)cccc3c2)c2ccccc2O1 (stereo not drawn) , report its measured melting point.
# output 103 to 105 °C

# input I'd like to know its melting point. The compound in question is c1ccc2c(c1)OC1(CC1)CN=C2c1cnc2ccccc2c1
# output 102 to 104 °C

# input So what's the measured melting point for this one? CC1(C)CN=C(c2cnc3c(F)cccc3c2)c2ccccc2S1
# output 181 to 183 °C

# input Quick one: melting point for CC1(C)CNC(c2cnc3c(F)cccc3c2)c2cccc(F)c2O1 (stereo not drawn) ?
# output 130 to 131 °C

# input Which measured melting point value corresponds to CC1(C)CN=C(c2cnc3ccccc3c2)c2cccc(Cl)c2O1.Cl ?
# output 149 to 151 °C

----------
Please respond with reported melting point for every item in the list.

# input Consider the compound c1ccc2c(c1)N=C(c1cnc3ccccc3c1)c1ccccc1O2 and give its measured melting point.
# output 182 to 184 °C

# input Return reported melting point; argument: Cc1cccc2c1OC(C)(C)CN=C2c1cnc2c(F)cccc2c1
# output 151 to 153 °C

# input Given Cc1cccc2ncc(C3=NCC(C)(C)Oc4c(Cl)cccc43)cc12 , state its recorded melting point.
# output 160 to 162 °C

# input I have this compound here, CC1(C)CN(Cc2ccccc2)C(c2cnc3c(F)cccc3c2)c2cccc(Cl)c2O1 (stereo not shown) , and I need its recorded melting point.
# output 138 to 141 °C

# input State the recorded melting point for this entry: CC1(C)COc2ccccc2C(c2cnc3ccccc3c2)=N1
# output 109 to 112 °C

# input Reported melting point for CC1(C)CN=C(c2cnc3c(Cl)cccc3c2)c2cccc(Cl)c2O1 : what is it?
# output 214 to 217 °C

# input Look up melting point: CC1(C)CN(C=O)C(c2cnc3c(F)cccc3c2)c2cccc(F)c2O1 (stereo not shown)
# output 131 to 133 °C

# input Consider the compound shown here: O=C1COc2ccccc2C(c2cnc3ccccc3c2)N1 (stereo not shown) What is its recorded melting point?
# output 225 to 227 °C

# input Endpoint output: melting point of CCC1(C)CN=C(c2cnc3c(F)cccc3c2)c2ccccc2O1 (stereo not shown) . Value?
# output 93 to 95 °C

# input Which melting point is listed for CC1(C)CN=C(c2cnc3cccc(Cl)c3c2)c2cccc(Cl)c2O1 ?
# output 157 to 159 °C

Each recorded value in this set is attributed to patent US8557738B2.
